System: 4T1
Assay: MTT anti-proliferative assay on 4T1
Assay type: cell-based, mouse
Conditions: Mus musculus, 4T1; MTT, 48 hours treatment, mean ± SD (n = 2)
// boundary case: IC50 equal to 40 µM maps to 0.0; strictly smaller maps to 1.0

{"columns": ["compound", "assigned.category"],
 "data": [
  ["FC(F)(F)c1c(-c2ccccc2)noc1-c1ccccc1", 1.0],
  ["FC(F)(F)c1c(-c2cccs2)noc1-c1ccccc1", 1.0],
  ["c1ccc(-c2cc(-c3ccccc3)on2)cc1", 0.0],
  ["c1ccc(-c2cc(-c3cccs3)on2)cc1", 1.0],
  ["Nc1ccccc1NC(=O)c1cnccn1 [BG-45, reference compound]", 0.0],
  ["COc1ccc(-c2cc(-c3cccs3)on2)cc1OC [Compound 14, reference compound]", 0.0],
  ["FC(F)(F)c1c(-c2ccco2)noc1-c1cccs1", 1.0],
  ["COc1ccc(-c2noc(-c3cccs3)c2C(F)(F)F)cc1OC", 1.0]
]}

Please turn your attention to the following entry.
## Input I'd appreciate it if you could check whether `FC(F)(F)c1c(-c2cccs2)noc1-c1ccco1` has IC50 smaller than 40 µM.
## Output 1.0
